- Tested on: SR leukemia
- procedure.details: NCI-60 one-dose screen, 48 h (100 = growth as untreated, 0 = no growth, -100 = all killed)
- protocol.conditions: 10 µM unless noted
This is part of a sample that, as a whole, favours compounds with a hit. Of some 83,000 tested, about 20% had one in any assay.
metric: growth (%)

1. NC(=O)CNc1ccc([As]=[As]c2ccc(NCC(N)=O)cc2)cc1 (centres undefined) | 14
2. C[C@]12CC[C@H]3[C@@H](C[C@@H]4SC(Nc5ccccc5)=N[C@@]45CC(O)CC[C@]35C)[C@@H]1CCC2O (some centres undefined) | 8.06
3. O=C1NC(=O)C(=Cc2ccc(OCCCCC3CCCCC3)c(Cl)c2)C(=O)N1 | 106
4. O=C(CC1(O)C(=O)N(Cc2ccccc2)c2ccccc21)c1ccc(C(=O)NCC2CCC3(CC2)OOC2(CCCCC2)OO3)cc1 (centres undefined) | -49.3
5. COC(=O)[C@@H](C)C[C@H](Cc1ccccc1)NC(=O)c1csc([C@@H](C[C@H](C(C)C)N(C)C(=O)[C@@H](NC(=O)[C@H]2CCCCN2C)C(C)C)OC(C)=O)n1 | 6.8
6. CC(=O)O[C@H]1C(=O)[C@@]2(C)[C@H]([C@H](OC(=O)c3ccccc3)[C@]3(O)C[C@H](OC(=O)[C@H](OC(=O)OC[C@@H]4COC(C)(C)O4)[C@@H](NC(=O)c4ccccc4)c4ccccc4)C(C)=C1C3(C)C)[C@]1(OC(C)=O)CO[C@@H]1C[C@@H]2O | 25.5
7. Clc1cccc(N2COOC3(OOC2)C2CC4CC(C2)CC3C4)c1 | 37.7
8. Brc1ccc2c(c1)c(-c1nc(-c3c[nH]c4ncccc34)cs1)cn2CCN1CCCCC1 | 16.2
9. CCCCCCCC(=O)OCC(=O)[C@]1(O)Cc2c(O)c3c(c(O)c2[C@@H](OC2CC(N)C(O)C(C)O2)C1)C(=O)c1c(OC)cccc1C3=O (some centres undefined) | -67.1
10. CC[C@]12C=CCN3CC[C@]4(C(=C(C(=O)OC)C1)Nc1cc(OC)c(OC(C)=O)cc14)[C@@H]32 | 7.64
11. CCCC[C@H](NC(=O)[C@H]1CCCCN1C)C(=O)N(C)[C@H](C[C@@H](OC(C)=O)c1nc(C(=O)N[C@@H](Cc2ccccc2)C[C@H](C)C(=O)OCC)cs1)C(C)C | 4.92
12. CC[C@@H]1[C@@H](C)O[C@@](O)([C@@H](C)[C@H](O)[C@H](C)[C@H]2OC(=O)/C=C/C=C/[C@H](C)[C@@H]([C@@H](C)[C@@H](O)[C@H](C)[C@@]3(O)C[C@@H](O[C@H]4C[C@@H](O)[C@H](O)C(C)O4)[C@H](CC)[C@@H](C)O3)OC(=O)/C=C/C=C/[C@@H]2C)C[C@H]1O[C@@H]1C[C@@H](O)[C@H](O)C(C)O1 (some centres undefined) | -49.1
13. Cc1cc(N(CCCl)CCCl)ccc1C=Nc1ccccc1-c1ccccc1 | 30.6
14. COc1ccc(Nc2ccnc3cc(Cl)ccc23)cc1CN(CCCl)CCCl | -0.721
15. COC(=O)[C@@H](C)C[C@H](Cc1ccccc1)NC(=O)c1csc([C@@H](C[C@H](C(C)C)N(C)C(=O)[C@@H](NC(=O)CN(C)C)C2CC2)OC(C)=O)n1 | 3.74
16. CC[C@H](C)[C@H](NC(=O)C12CC(NC(C)=O)(C1)C2)C(=O)N(C)[C@H](C[C@@H](OC(C)=O)c1nc(C(=O)N[C@@H](Cc2ccccc2)C[C@H](C)C(=O)OC)cs1)C(C)C | 20.8
17. COc1cccc(/C=C/[N+](=O)[O-])c1 | -21.6
18. Cn1cc(-c2csc(-c3cn(CCCCN4CCCCC4)c4ccccc34)n2)c2cccnc21 | -49.5
19. CCOC(=O)[C@@H](C)C[C@H](Cc1ccccc1)NC(=O)c1csc([C@@H](C[C@H](C(C)C)N(C)C(=O)CNC(=O)[C@H]2CCCCN2C)OC(C)=O)n1 | 7.72
20. CC1CCCC(C[N+](C)(C)C)C1=O (centres undefined) | 86.8
21. N#CC1C(C#N)C2CCC1C1C2N1c1ccccc1 (centres undefined) | 91.5
22. COc1ccc(Nc2ccc([N+](=O)[O-])cc2[N+](=O)[O-])cc1CN(CCCl)CCCl | 7.8
23. CC(=O)[O][Hg][c]1c(N)c(C)cc(C)c1F | -11.2
24. Nc1ncnc2n[nH]nc12 | 63.1
25. COc1ccc(C/C(C)=C(\c2ccc(OCCN3CCOCC3)cc2)c2ccc(OC(=O)Cc3ccccc3)cc2)cc1 | -38.2
26. CC(=O)O[C@H](C[C@H](C(C)C)N(C)C(=O)[C@@H](NC(=O)[C@H]1CCCCN1C)C(C)(C)C)c1nc(C(=O)N[C@@H](Cc2ccccc2)C[C@H](C)C(=O)O)cs1 | 2.59
27. O=C(NCCN1CC1)C(=O)NCCN1CC1 | 19
28. CC1(C)[C@H](O)[C@H](F)C[C@@]2(C)Oc3ccc(C(=O)Nc4ccc5c(c4)NC(=O)C54CCN(CCCCC#N)CC4)cc3C[C@H]12 | 10.4
29. COC(=O)[C@@H](C)C[C@H](Cc1ccc(F)cc1)NC(=O)c1csc([C@@H](C[C@H](C(C)C)N(C)C(=O)[C@@H](NC(=O)[C@H]2CCCCN2C)C(C)C)OC(C)=O)n1 | 14.9

Entry source: PubChem BioAssay (NCI)
